experiment: qHTS assay for small molecules that induce genotoxicity in human embryonic kidney cells expressing luciferase-tagged ATAD5 - cell viability (AID 651634); details: HEK293T ATAD5-luc cells viability, CellTiter-Fluor, 15.5 h; series mostly up to 83.3 µM; note: nearly all actives have a fitted effect of over 25% in size
Results filed as inconclusive are left out. Calls of active or inactive are those of the source. Calls come from the whole dose curve.
Labels: active, inactive

# molecule, label
measured = [
    ("CCC(C)(O)CCCC(C)C (stereo not given)", "inactive"),
    ("Nc1ncnc2nc[nH]c12", "inactive"),
    ("CC(CCC(=O)O)(c1ccc(O)cc1)c1ccc(O)cc1", "inactive"),
    ("C#C[C@]1(O)CC[C@H]2[C@@H]3CCC4=Cc5oncc5C[C@]4(C)[C@H]3CC[C@@]21C", "inactive"),
    ("C=C(C)C1CC=C(C)CC1 (stereo not given)", "inactive"),
    ("CCCCOCCOCCO", "inactive"),
    ("Cc1ccc(C(=O)c2cc(O)c(O)c([N+](=O)[O-])c2)cc1", "active"),
    ("COc1c(Cl)c(Cl)c(Cl)c(Cl)c1Cl", "inactive"),
    ("COc1ccc(C(=O)CC(=O)c2ccc(C(C)(C)C)cc2)cc1", "inactive"),
    ("O=C(Nc1ccc(Cl)cc1)Nc1ccc(Cl)c(Cl)c1", "active"),
    ("O=S(=O)(O)c1ccc(O)cc1", "inactive"),
    ("Cc1ccc2c(n1)Oc1ccc(C(C)C(=O)OCC(=O)N(C)C)cc1C2 (stereo not given)", "inactive"),
    ("C/C=C/C(=O)O", "inactive"),
    ("Nc1ccccc1N", "inactive"),
    ("CN1C(C(=O)Nc2ccccn2)=C(O)c2ccccc2S1(=O)=O", "inactive"),
]

###

target: Androgen receptor (Homo sapiens); assay: qHTS assay to identify small molecule antagonists of the androgen receptor (AR) signaling pathway using the MDA cell line (AID 743042; note: nearly all actives have a fitted effect of over 55% in size); settings: MDA-kb2 AR-luc, MMTV luciferase, R1881 antagonist, 16 h; series mostly up to 70.3 µM
Inconclusive results are not listed. Calls of active or inactive are those of the source. Calls come from the whole dose curve; as a rule, active = well fitted inhibition curve with a large enough effect in the repeat runs; inconclusive = weak or mixed curves, or effect the other way; inactive = no such curve, though single readings can be large or run the other way.

# compound, outcome
rows = [
    ("Cc1cccc([N+](=O)[O-])c1C", "inactive"),
    ("C=C(C)C(=O)OCCOC(=O)C(=C)C", "inactive"),
    ("O=C(c1ccccc1)c1ccccc1O", "inactive"),
    ("COC(C)COC(C)COC(C)CO (centres undefined)", "inactive"),
    ("COc1cc([C@@H]2c3cc4c(cc3[C@H](O)[C@H]3COC(=O)[C@H]23)OCO4)cc(OC)c1OC", "inactive"),
    ("CCOCCOCCO", "inactive"),
    ("Cc1ccc2c(n1)Oc1ccc(C(C)C(=O)OCC(=O)N(C)C)cc1C2 (centres undefined)", "inactive"),
    ("OCCO", "inactive"),
    ("Cc1cccc(C(=O)O)c1", "inactive"),
]

###

target: Cytochrome P450 1A2 (Homo sapiens) (UniProt P05177); experiment: Cytochrome P450 Family 1 Subfamily A Member 2 (CYP1A2) small molecule antagonists: luciferase reporter qHTS assay (AID 1671199); settings: P450-Glo CYP1A2 enzyme, luciferin luminescence, 1 h; series mostly up to 115 µM; note: nearly all actives have a fitted effect of over 50% in size; note: potency is the fitted concentration of half-maximal effect
Sequence (P05177 whole entry, looked up): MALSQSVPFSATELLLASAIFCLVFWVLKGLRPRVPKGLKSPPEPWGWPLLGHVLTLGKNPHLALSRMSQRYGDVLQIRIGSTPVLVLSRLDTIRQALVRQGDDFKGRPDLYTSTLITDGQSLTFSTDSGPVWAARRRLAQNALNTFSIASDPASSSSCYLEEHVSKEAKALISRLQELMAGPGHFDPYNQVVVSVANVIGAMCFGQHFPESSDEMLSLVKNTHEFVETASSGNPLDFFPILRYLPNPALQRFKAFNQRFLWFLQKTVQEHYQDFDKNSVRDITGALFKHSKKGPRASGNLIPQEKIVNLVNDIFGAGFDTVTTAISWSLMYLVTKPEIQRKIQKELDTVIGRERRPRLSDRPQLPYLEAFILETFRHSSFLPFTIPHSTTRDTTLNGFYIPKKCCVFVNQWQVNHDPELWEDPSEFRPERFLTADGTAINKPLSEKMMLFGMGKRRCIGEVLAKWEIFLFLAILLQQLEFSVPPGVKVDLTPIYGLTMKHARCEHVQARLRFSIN
Records with an inconclusive call do not appear. Activity calls are given as the source filed them. Calls come from the whole dose curve; as a rule, active = well fitted inhibition curve with a large enough effect in the repeat runs; inconclusive = weak or mixed curves; inactive = no such curve, though single readings can be large or run the other way.
measurement_type: Potency

# molecule, measured
measured = [
    ("COC(=O)C1=C(C)NC(C)=C(C(=O)OCCN(C)Cc2ccccc2)C1c1cccc([N+](=O)[O-])c1 (stereo not drawn)", "inactive"),
    ("COc1ccc(C(=O)CC(=O)c2ccc(C(C)(C)C)cc2)cc1", "34.1 µM (active)"),
    ("Cc1cccc(C(=O)O)c1", "inactive"),
    ("OC[C@H]1O[C@@H]2O[C@H]3[C@H](O)[C@@H](O)[C@@H](O[C@H]4[C@H](O)[C@@H](O)[C@@H](O[C@H]5[C@H](O)[C@@H](O)[C@@H](O[C@H]6[C@H](O)[C@@H](O)[C@@H](O[C@H]7[C@H](O)[C@@H](O)[C@@H](O[C@H]8[C@H](O)[C@@H](O)[C@@H](O[C@H]1[C@H](O)[C@H]2O)O[C@@H]8CO)O[C@@H]7CO)O[C@@H]6CO)O[C@@H]5CO)O[C@@H]4CO)O[C@@H]3CO", "inactive"),
    ("Oc1ccc(O)cc1", "inactive"),
    ("CCCCNS(=O)(=O)c1ccccc1", "inactive"),
    ("C[C@]12CCC(=O)C=C1CC[C@@H]1[C@@H]2C(=O)C[C@@]2(C)[C@H]1CC[C@]2(O)C(=O)CO", "inactive"),
    ("c1ccc(Nc2ccccc2)cc1", "35.6 µM (active)"),
]
